- target: APOL1 G1 (Homo sapiens, UniProt O14791, I384M/M228I/R255K/S342G)
- measurement.protocol: Automated whole-cell patch clamp
- Assay type: cell-based
experimental.endpoint: IC50 (nM)
Provide only the numeric value, understood in nM.

Consider the compound shown here: `O=C(CCc1c(-c2ccc(F)cc2)[nH]c2c(F)cc(F)cc12)N[C@@H]1C(=O)NC[C@H]1O` What is its recorded IC50?
1.3

----------
Vd by entry:
- measurement.protocol: Rat pharmacokinetics
- condition.details: in vivo

Some molecules with recorded Vd:
O=C(CCc1c(-c2ccc(F)cc2)[nH]c2c(F)cc(F)cc12)N[C@@H]1C(=O)NC[C@H]1O [VX-147]	0.9 L/kg
Cc1cc(F)cc2c(CCC(=O)N[C@H]3CCNC3=O)c(-c3ccc(F)cc3)[nH]c12 [Compound 2]	2.1 L/kg

Alright, here's another molecule for you.
Consider the molecule shown here: Cc1cc(F)cc2c(CCC(=O)N[C@@H]3C(=O)NC[C@H]3O)c(-c3ccc(F)cc3)[nH]c12 [Compound 3] What is its recorded Vd?
1.4 L/kg

----------
EC50 by entry:
- target: APOL1 G2 (Homo sapiens, UniProt O14791, DEL388-389/M228I/R255K, cells depend on it)
- measurement.protocol: HEK cell rescue
- condition.details: read-out: APOL1 G2 HEK Cell Rescue EC50; HEK293 APOL1 G2; replicates in brackets
Provide only the numeric value, understood in nM.

Consider the molecule shown here: O=C(CCc1c(-c2ccc(F)cc2)[nH]c2c(F)cc(F)cc12)N[C@@H]1C(=O)NC[C@H]1O [VX-147] What is its recorded EC50?
2.2

Also Cc1cc(F)cc2c(CCC(=O)N[C@@H]3C(=O)NC[C@H]3O)c(-c3ccc(F)cc3)[nH]c12 [Compound 3] , if possible.
10
